The values you see were collected from patent US20220220128A1.

A collection of compounds and their measured pIC50
measurement-target: human RET kinase (Homo sapiens, UniProt P07949)
Sequence (P07949 29-1114): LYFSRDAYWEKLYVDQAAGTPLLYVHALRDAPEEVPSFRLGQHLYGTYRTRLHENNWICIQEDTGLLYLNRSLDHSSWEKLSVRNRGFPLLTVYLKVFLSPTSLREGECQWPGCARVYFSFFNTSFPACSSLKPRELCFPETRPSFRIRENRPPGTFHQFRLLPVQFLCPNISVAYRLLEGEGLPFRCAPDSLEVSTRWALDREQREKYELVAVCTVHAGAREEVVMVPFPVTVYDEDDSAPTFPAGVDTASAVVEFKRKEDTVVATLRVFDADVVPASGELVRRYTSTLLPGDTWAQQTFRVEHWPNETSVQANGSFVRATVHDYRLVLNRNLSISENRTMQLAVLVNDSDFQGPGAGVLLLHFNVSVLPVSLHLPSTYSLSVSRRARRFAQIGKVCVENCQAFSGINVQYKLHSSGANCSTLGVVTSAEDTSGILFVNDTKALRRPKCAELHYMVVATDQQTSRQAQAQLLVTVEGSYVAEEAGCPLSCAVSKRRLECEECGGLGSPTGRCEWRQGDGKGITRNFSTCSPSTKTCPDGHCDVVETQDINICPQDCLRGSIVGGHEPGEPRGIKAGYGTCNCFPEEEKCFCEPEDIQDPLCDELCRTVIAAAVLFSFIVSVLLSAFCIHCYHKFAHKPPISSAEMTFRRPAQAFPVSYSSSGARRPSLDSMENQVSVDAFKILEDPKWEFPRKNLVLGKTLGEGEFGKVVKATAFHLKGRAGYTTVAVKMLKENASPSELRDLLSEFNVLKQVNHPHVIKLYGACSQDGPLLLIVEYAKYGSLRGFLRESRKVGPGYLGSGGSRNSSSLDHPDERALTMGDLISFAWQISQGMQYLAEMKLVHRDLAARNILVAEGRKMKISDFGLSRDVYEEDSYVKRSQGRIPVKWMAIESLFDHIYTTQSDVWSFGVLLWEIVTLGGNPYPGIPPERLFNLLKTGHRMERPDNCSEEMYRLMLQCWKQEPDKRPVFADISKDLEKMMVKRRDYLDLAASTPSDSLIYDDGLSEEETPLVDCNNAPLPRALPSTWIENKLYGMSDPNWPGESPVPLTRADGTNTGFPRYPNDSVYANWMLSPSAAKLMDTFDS
pIC50: −log10 of the molar value.

Example entries begin here.
compound: COc1ccc(C(=O)NC23CC4CC(C2)N(c2ccc(-c5cc(OCC(C)(C)O)cn6ncc(C#N)c56)cn2)C(C4)C3)cn1 [Example 138]
measurement-target: human RET kinase (Homo sapiens, UniProt P07949)
pIC50: ≥ 8.00
--
compound: Cn1cc(-c2cc(-c3ccc(N4C[C@@H]5[C@@H](CNC(=O)OC(C)(C)C)[C@@H]5C4)nc3)c3c(C#N)cnn3c2)cn1 [Example 71]
measurement-target: human RET kinase (Homo sapiens, UniProt P07949)
pIC50: ≥ 8.00

// query Data request, read-out pIC50, for CCOc1cc(-c2ccc(N3C[C@@H]4C[C@@](C)(NC(=O)c5c(C)cccc5Cl)C[C@@H]4C3)nc2)c2c(C#N)cnn2c1 [Example 63]
// result ≥ 8.00
